tested on: Danio rerio larvae (5 dpf); assay: difference in activity during first hour vs DMSO (percentage points); higher = more activity than DMSO; conditions: 10 µM; exposure time 6 h
Counter-ions that a name gives are not always drawn.
Provide the reported difference in activity during first hour of each item.
One number for each entry.

compound	difference in activity during first hour
CCOC(=O)O[C@]1(C(=O)COC(=O)CC)CC[C@H]2[C@@H]3CCC4=CC(=O)C=C[C@]4(C)[C@H]3[C@@H](O)C[C@@]21C [Prednicarbate]	-2.36
CCCCN1C[C@H](O)[C@@H](O)[C@H](O)[C@H]1CO [N-Butyldeoxynojirimycin (hydrochloride)]	16.1
CCOC(=O)c1ncn2c1CN(C)C(=O)c1cc(F)ccc1-2	0.681
NCCCC(O)(P(=O)(O)O)P(=O)(O)O [Alendronate (sodium hydrate)]	-3.96
C[C@]12CC[C@@H]3c4ccc(O)cc4C[C@@H](CCCCCCCCC[S+]([O-])CCCC(F)(F)C(F)(F)F)[C@H]3[C@@H]1CC[C@@H]2O (stereo not given in full)	-0.447

Fill in difference in activity during first hour for each of the 6 compounds listed.
1. CN(C)C(=O)C(CCN1CCC(O)(c2ccc(Cl)cc2)CC1)(c1ccccc1)c1ccccc1 [Loperamide (hydrochloride)]
2. CCCc1nc(C(C)(C)O)c(C(=O)OCc2oc(=O)oc2C)n1Cc1ccc(-c2ccccc2-c2nnn[nH]2)cc1
3. COc1ccc(NC(=O)c2ccc(C(=N)N(C)C)cc2)c(C(=O)Nc2ccc(Cl)cn2)c1
4. COc1cc2nc(N(C)CCCNC(=O)C3CCCO3)nc(N)c2cc1OC (stereo not given) [Alfuzosin (hydrochloride)]
5. C#Cc1cccc(Nc2ncnc3cc(OCCOC)c(OCCOC)cc23)c1
6. Clc1ccc(C(Cn2ccnc2)OCc2csc3c(Cl)cccc23)c(Cl)c1 (stereo not given) [Sertaconazole (nitrate)]

A:
[29.3, 0.837, 2.19, 5.63, -6.91, -18.2]

Provide difference in activity during first hour for all items below, preserving their order.
1. Cn1c(=O)c2[nH]cnc2n(C)c1=O [Aminophylline]
2. CC(C)Nc1cccnc1N1CCN(C(=O)c2cc3cc(NS(C)(=O)=O)ccc3[nH]2)CC1 [Delavirdine (mesylate)]
3. Nc1cc(N2CCCCC2)nc(N)[n+]1[O-]

A:
2.88
-9.21
-1.78

For `NCC[C@H](O)C(=O)N[C@@H]1C[C@H](N)[C@@H](O[C@H]2O[C@H](CN)[C@@H](O)[C@H](O)[C@H]2O)[C@H](O)[C@H]1O[C@H]1O[C@H](CO)[C@@H](O)[C@H](N)[C@H]1O` on Danio rerio larvae (5 dpf), measured difference in activity during first hour was 10.9

====

test system: Danio rerio larvae (5 dpf); assay: difference in excitability vs DMSO (percentage points); higher = more excitable than DMSO; details: 10 µM; exposure time 6 h
Counter-ions that a name gives are not always drawn.
Please respond with reported difference in excitability for every item in the list.

Here's what some known entries look like.
> print(dat)
                                   compound  reading
1  CCc1c2c(nc3ccc(OC(=O)N4CCC(N5CCCCC5)CC4)cc13)-c1cc3c(c(=O)n1C2)COC(=O)[C@]3(O)CC [Irinotecan (hydrochloride hydrate)]     13.5
2  Cc1cc(C)cc(OCC2CNC(=O)O2)c1 (centres undefined)     8.24
3           CC(=O)NO [Acetohydroxamic Acid]       12

The record that follows has no difference in excitability shown yet.
Test item O=C(O[C@H]1CN2CCC1CC2)N1CCc2ccccc2[C@@H]1c1ccccc1 [Solifenacin (succinate)] ; Danio rerio larvae (5 dpf); reported difference in excitability was 3.16
